tested on: SARS-CoV-2 in Vero-E6 cells; test: microbe, parasite or virus in culture; format: cell-based; conditions: Severe acute respiratory syndrome coronavirus 2, Vero C1008, 72 h, read-out: PC min real
Entries and their measured minimal effective concentration follow.
Please state the figure in µM; there is no need to write the unit.

Consider the reported minimal effective concentration for these molecules:
{"molecule": "CCCCCCOC(=O)[C@H](CCC(=O)NCCC1CCN(Cc2ccccc2)CC1)NC(=O)c1cc2cccnc2s1 [NF1354]", "minimal effective concentration, µM": 27.8}
{"molecule": "CCCCCCOC(=O)[C@H](CCC(=O)NCCC1CCN(Cc2ccccc2)CC1)NC(=O)c1cc(Br)cs1 [NF1351]", "minimal effective concentration, µM": 5.7}

Here is the next item to consider.
Look up and state reported minimal effective concentration for CCCCCCOC(=O)[C@H](CCC(=O)NCCC1CCN(Cc2ccccc2)CC1)NC(=O)OCc1ccccc1 [NF1349] 6.3

These measurements were taken from patent EP4389121A1.
